The variants listed here are annotated with their self-cleavage.
B1: Hairpin Ribozyme (parent)
chain: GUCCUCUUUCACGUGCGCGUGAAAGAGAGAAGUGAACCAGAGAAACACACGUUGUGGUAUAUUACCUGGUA

variants of: B1; experiment: self-cleavage, relative activity (ratio to wild type); higher = more cleavage; co-transcriptional
metric: self-cleavage

INSERT INTO results (ordered_residues, reading) VALUES
  ('GUCCUCUUUCACGUGCGCGUGAGAGAGAGAAGUGAACCAGAGAAACACACGUUGUGGUAUAUUACCUUGUA', 0.198),
  ('GUCCUCUUUCACGUGCGCGUGAAAGAGAGAAGUGAACCAGUGAAACACACGUUGUGGAAUAUUACCUGGUA', 1.2),
  ('GUCCUCUUUCACGUGCGCGUGAAAGAGAGAAGUGAACCAGAGAAACACACGUUGUGGUAUAUUACCGGGUG', 0.208),
  ('GUCCUCUUUCACGUGCGCGUGAAAGAGAGAAGUGAACCAGAAAAACACACGUUGUGCUAUAUUACCUGGUA', 0.0908),
  ('GUUCUCUUUCACGUGCGCGUGAAAGAGAGAAGUGAACCAGAGAAACACACGUUGUAGUAUAUUACCUGGUA', 0.16),
  ('GUCCUCUUUCACGUGCGCGUGAAAGAGAGAAGUGAACCAGAGAAACACACUUUGUGGUAUAUUACAUGGUA', 0.192),
  ('GUCCUCUUUCACGUGCGCGUGAAAGAGAGAAGUGAACCAGAGAAACACCCGUUUUGGUAUAUUACCUGGUA', 0.216),
  ('GUCCUCUUUUACGUGCGCGUGAAAGAGAGAAGUGAACCAGAGAAACACACGUUGUGGUAUAUUAGCUGGUA', 0.284),
  ('GUCCUCUUUUACGUGCGCGUGAAAGAGAGAAGUGAACCAGAGAAACACACGUCGUGGUAUAUUACCUGGUA', 0.708),
  ('GUCCUCUUUCAAUUGCGCGUGAAAGAGAGAAGUGAACCAGAGAAACACACGUUGUGGUAUAUUACCUGGUA', 0.673),
  ('GUCCUCUUUCACGUUGGCGUGAAAGAGAGAAGUGAACCAGAGAAACACACGUUGUGGUAUAUUACCUGGUA', 1.09),
  ('GUCCUCUUUCACGUGCGCGUGAAAGAGAGAAGCGAACCAGAGAAACACACGUUGCGGUAUAUUACCUGGUA', 0.173),
  ('AUCCUCUUUCACGUGCGCGUGAAAGAGAGAAGUGAACCAGAGAAACACACGUUGUGGUAUAUUACCUUGUA', 0.176),
  ('GUCCUCUUUCACGUGCCCGUGAAAGAGAGAAGUGAACCAGAGAAACACACGUUGUGGUAUAUUGCCUGGUA', 0.592),
  ('GUCCUCUUUCACGUGCGCGUGAAAGAGAGAAGUCAACCAGAGAAACACACGCUGUGGUAUAUUACCUGGUA', 1.6),
  ('GUCCUCUUUCACGUGCGCGUGAAAGAGAGAAGUGAACCAGAGAAACACACGUUCUGGUAUACUACCUGGUA', 0.108),
  ('GUCCUCUUUCACGUGCGCGUGAAAGAGCGAAGGGAACCAGAGAAACACACGUUGUGGUAUAUUACCUGGUA', 0),
  ('GUCCUCUUUCACGUGCGCGUGAAAGACAGAAGUGAACCAGAGAAACACACGUUGUGGUAUAUUACAUGGUA', 0.157),
  ('GUCCUCUUUCACAUGCGCGUGAAAGAGAGAAGUGAACCAGAGAAACACACGAUGUGGUAUAUUACCUGGUA', 1.01),
  ('GUCCGCUUUCACGUGCGCGUGAAAGAGAGAAGUGAACCAGAGAAACACACGUUGUGGUAUGUUACCUGGUA', 0.0248),
  ('GUCCUCUUUCACGUGCGCGUGAAAGAGAGAAGUGAACCAGAGAAACACACGUUGUGGUAUAGAACCUGGUA', 0.0488),
  ('GUCCUCUUUCACGUGCGCGUGAAAGAGGGUAGUGAACCAGAGAAACACACGUUGUGGUAUAUUACCUGGUA', 0.0576),
  ('GGCCUCUUUCACGUGCGCGUGAAAGAGAGAAGCGAACCAGAGAAACACACGUUGUGGUAUAUUACCUGGUA', 0.0578),
  ('GUCCUCUUUCACGUGCGCGAGAAAGAGAGAAGUGAACCAGAGAAACACACCUUGUGGUAUAUUACCUGGUA', 0.846),
  ('GUCCUCUUUCUCGUGCGCGUGAAAGAGAGAAGUGAACCAGAGAAACACACGUUGUGGUAUAUUACCUGGCA', 0.848),
  ('GUCCUCUUUCACGUGCGCGUGAAAGAUAGAAGUGAACCAGAGAAACACACGCUGUGGUAUAUUACCUGGUA', 0.377),
  ('GUCCUCUUUCACGUGCGCGUGAAAGAGAGAAGUGUACCAGAGAAUCACACGUUGUGGUAUAUUACCUGGUA', 0.151),
  ('GUCCUCUUUCACGCGCGCGUGAAAGAGAGGAGUGAACCAGAGAAACACACGUUGUGGUAUAUUACCUGGUA', 0.116),
  ('GUCCUCUUUCACGUGCGCGUGAGAGAGAGAAGUGAACCAGAGAAACACACGUUGUGGUAUAUUACCGGGUA', 0.18),
  ('GUCCUCUUUCACGUGCGCGUGAAAGAGAGAAGUGAACCUGAGAAACACACGUUGUGGUAUAUUACCUGAUA', 0.157),
  ('GUCCUCGUUCACGUGCGCGUAAAAGAGAGAAGUGAACCAGAGAAACACACGUUGUGGUAUAUUACCUGGUA', 0.499),
  ('GUCCUCUUUCACGUGCGCGUGAAAGAGAGAAGUGAACCAGAGAAACACACGUUGUGGUAUCUUACCAGGUA', 0.252),
  ('GUCCUCUUUCACGUGCGCGUGAAAGAGAAAAGUGAACCAGAGAAACAAACGUUGUGGUAUAUUACCUGGUA', 0.131),
  ('GCCCUCUUUCACGUGCGCGUGAGAGAGAGAAGUGAACCAGAGAAACACACGUUGUGGUAUAUUACCUGGUA', 0.116),
  ('GUCCUCUUUCACGAGCGCGUGAAAUAGAGAAGUGAACCAGAGAAACACACGUUGUGGUAUAUUACCUGGUA', 0.521),
  ('GUCCUCUUUAACGUGCGCGUGAAAGAGAGAAGUGAACCAGAGAAACACACGUUGUGGUAUAUUACCCGGUA', 0.188),
  ('GUCCUCUUUCACGUUCGCGUGAAAGAGAGAAGUGAACCAGAGAAACACACGUUAUGGUAUAUUACCUGGUA', 0.695),
  ('GUCCUCUUUCAAGUGCGCGUGAAAGAAAGAAGUGAACCAGAGAAACACACGUUGUGGUAUAUUACCUGGUA', 0.378),
  ('GUCCUCUUUCACGUGCGCGUGAAAGAGAGACGUGAACCAGAGAAACACACGUUGUGGUAUAAUACCUGGUA', 0.12),
  ('GUCCUCUUUCACGUACGCGUGAAAGAGAGAAGUUAACCAGAGAAACACACGUUGUGGUAUAUUACCUGGUA', 1.26),
  ('GUCCUCUUUCACGUGCGCGUGAAAGAGAGGAGUGAACCAGAGAAACACACGUUGUCGUAUAUUACCUGGUA', 0.0815),
  ('AUCCUCUUUCACGUGCGCGUGAAAGAGAGAAGUGAACCAGAGAAACACACGUUGUGGUAUAUUUCCUGGUA', 0.272),
  ('GUCCUCUUUCACGUGCGCGUGAAAGAGAGACGUGAACCAGAGUAACACACGUUGUGGUAUAUUACCUGGUA', 0.0953),
  ('GUCCUCUUUCACGUGCGCGUGAAAGAGAGAAGUGAACCAAAGAAACACACGUUGUGGUAUAUUACCAGGUA', 0.108),
  ('GUCCUCUUUCACGUGCGCGUGAAAAAGAGAAGUGAACCAGAGAAACACACGUUGUGGUAUAUUACAUGGUA', 0.15),
  ('GUCCUCUUUCACGUGCGCGUGAAAGAGAGAAGUGAACCAGAGAAACACACGUUGUGGUCUAUUACCUGGUG', 0.119);
